B1: Transcription intermediary factor 1-beta, residues 620 to 671; numbered along this chain, Q13263 (parent)
chain: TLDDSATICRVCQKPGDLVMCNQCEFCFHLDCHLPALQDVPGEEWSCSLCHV

Variants of: B1
measurement.description: abundance fitness (aPCA) (normalised: wild type 0, dead -1); higher = more abundant; growth selection in yeast, the domain comes from the species named
experimental.context: Homo sapiens
Entry flag: Y if abundance fitness reaches -0.3; N if it does not.

Evaluate `T7I` : abundance fitness at minimum -0.3? Y

Evaluate `S46L` : abundance fitness at minimum -0.3? Y

Evaluate `S5C` : abundance fitness at minimum -0.3? Y

Evaluate `V40M` : abundance fitness at minimum -0.3? Y

Evaluate `Q38W` : abundance fitness at minimum -0.3? N

Evaluate `H29M` : abundance fitness at minimum -0.3? N

Evaluate `V11S` : abundance fitness at minimum -0.3? N

Evaluate `V40D` : abundance fitness at minimum -0.3? Y

Evaluate `W45E` : abundance fitness at minimum -0.3? Y

Evaluate `C9Y` : abundance fitness at minimum -0.3? N

Evaluate `R10D` : abundance fitness at minimum -0.3? Y

Evaluate `Q23L` : abundance fitness at minimum -0.3? Y

Evaluate `D3C` : abundance fitness at minimum -0.3? N

Evaluate `L37F` : abundance fitness at minimum -0.3? N

Evaluate `C47I` : abundance fitness at minimum -0.3? N

Evaluate `H51N` : abundance fitness at minimum -0.3? N

Evaluate `S5L` : abundance fitness at minimum -0.3? N

Evaluate `C24M` : abundance fitness at minimum -0.3? N

Evaluate `A6D` : abundance fitness at minimum -0.3? Y

Evaluate `E43W` : abundance fitness at minimum -0.3? Y

Evaluate `H33C` : abundance fitness at minimum -0.3? Y

Evaluate `A36E` : abundance fitness at minimum -0.3? Y

Evaluate `L18Q` : abundance fitness at minimum -0.3? N

Evaluate `A36T` : abundance fitness at minimum -0.3? Y

Evaluate `F26V` : abundance fitness at minimum -0.3? N

Evaluate `S46R` : abundance fitness at minimum -0.3? Y

Evaluate `H29T` : abundance fitness at minimum -0.3? N

Evaluate `G16D` : abundance fitness at minimum -0.3? Y

Evaluate `C47H` : abundance fitness at minimum -0.3? N

Evaluate `E25H` : abundance fitness at minimum -0.3? N

Evaluate `C24V` : abundance fitness at minimum -0.3? N

Evaluate `L49S` : abundance fitness at minimum -0.3? Y

Evaluate `Q13V` : abundance fitness at minimum -0.3? N

Evaluate `L30I` : abundance fitness at minimum -0.3? N

Evaluate `C9K` : abundance fitness at minimum -0.3? N

Evaluate `S5P` : abundance fitness at minimum -0.3? Y
